Test system: Z138 cells
test protocol: MTT cell proliferation assay, Z138 cells
Assay type: cell-based
experimental context: Homo sapiens, Z-138, incubation approximately 64-72 hours
Protocol: The MTT cell proliferation assay was used to study the cytotoxic properties of the compounds. The assay was performed according to the method described by Roche Molecular Biochemicals, with minor modifications. […] After solubilization, the formazan dye was quantitated using a scanning multi-well spectrophotometer (ELISA reader). […] All optical densities were measured at 490 nm using a Vmax Kinetic Microplate Reader (Molecular Devices). […]
measurement label: IC50

• Nc1ccc(/C=C/C(=O)NCCCOc2ccc(-c3ccc(C(=O)N4CCOCC4)cc3)cc2Cl)cn1 [Compound 348] = < 100 nM
• CC(C)(CNC(=O)/C=C/c1ccc(N)nc1)Oc1ccc(F)c(-c2ccc(C(=O)N3CCOCC3)cc2)c1 [Compound 340] = < 100 nM
• Nc1ccc(/C=C/C(=O)NCCCOc2ccc(-c3ccc(C(=O)N4CC(F)(F)C4)cc3)cc2Cl)cn1 [Compound 336] = < 100 nM
• Nc1ccc(/C=C/C(=O)NCCOc2ccc(-c3ccc(C(=O)N4CCOCC4)cc3)cc2Cl)cn1 [Compound 316] = < 100 nM
• Nc1ccc(/C=C/C(=O)NCCOc2ccc(-c3ccc(C(=O)N4CCCCC4)cc3)cc2Cl)cn1 [Compound 329] = < 100 nM
• CC(=O)c1ccc(-c2ccc(OCCNC(=O)/C=C/c3cccnc3Cl)c(Cl)c2)s1 [Compound 304] = > 10000 nM
• CC(C)(CNC(=O)/C=C/c1ccc(N)nc1)Oc1ccc(-c2ccc(C(=O)N3CC(F)(F)C3)cc2)cc1Cl [Compound 333] = 100 to 5000 nM
• Cc1cc(-c2ccc(OCCNC(=O)/C=C/c3ccc(N)nc3)c(Cl)c2)ccc1C(=O)N1CCOCC1 [Compound 314] = < 100 nM
• Nc1ccc(/C=C/C(=O)NCC(F)(F)COc2ccc(-c3ccc(C(=O)N4CCOCC4)cc3)cc2Cl)cn1 [Compound 349] = < 100 nM
• CC(C)(O)c1ccc(-c2ccc(OCCNC(=O)/C=C/c3cccnc3)c(Cl)c2)s1 [Compound 320] = 100 to 5000 nM
• CC(=O)c1ccc(-c2ccc(OCCNC(=O)/C=C/c3ccc(N)nc3)c(Cl)c2)s1 [Compound 308] = 100 to 5000 nM
• Nc1ccc(/C=C/C(=O)NCCOc2ccc(-c3ccc(C(=O)N4CC(F)(F)C4)cc3)cc2Cl)cn1 [Compound 318] = < 100 nM
• Nc1ccc(/C=C/C(=O)NCCOc2ccc(-c3cnc(C(=O)N4CCOCC4)nc3)cc2Cl)cn1 [Compound 328] = 100 to 5000 nM
• Nc1ccc(/C=C/C(=O)NCCOc2ccc(-c3ccc(C(=O)N4CCOCC4)cc3)cc2C(F)(F)F)cn1 [Compound 339] = < 100 nM
• CC(=O)c1ccc(-c2ccc(OCCNC(=O)C#Cc3cccnc3)c(Cl)c2)s1 [Compound 309] = > 10000 nM
• CC(=O)c1ccc(-c2ccc(OCCNC(=O)/C=C/c3c(C)noc3C)c(Cl)c2)s1 [Compound 307] = > 10000 nM
• Nc1ccc(/C=C/C(=O)NCCOc2ccc(-c3ccc(C(=O)N4CC(F)(F)C4)cc3)cc2C(F)(F)F)cn1 [Compound 338] = < 100 nM
• CC(C)(CNC(=O)/C=C/c1ccc(N)nc1)COc1ccc(-c2ccc(C(=O)N3CCOCC3)cc2)cc1Cl [Compound 350] = < 100 nM
• CC(=O)c1ccc(-c2ccc(OCCN(C)C(=O)/C=C/c3cccnc3)c(Cl)c2)s1 [Compound 311] = 100 to 5000 nM
• CC(=O)c1ccc(-c2ccc(OC(C)(C)CNC(=O)/C=C/c3cccnc3)c(Cl)c2)s1 [Compound 323] = 100 to 5000 nM
• CN(C)C(=O)c1ccc(-c2ccc(OCCNC(=O)/C=C/c3ccc(N)nc3)c(Cl)c2)cc1 [Compound 325] = 100 to 5000 nM
• CC(=O)c1ccc(-c2ccc(OCCNC(=O)/C=C/c3cccnc3C)c(Cl)c2)s1 [Compound 305] = > 10000 nM
• Nc1ccc(/C=C/C(=O)NCCOc2cc(Cl)cc(-c3ccc(C(=O)N4CCOCC4)cc3)c2)cn1 [Compound 344] = < 100 nM
